protein stability index overview
# ASSAY_SUMMARY: protein stability index of a GFP-peptide fusion (yeast GPS) (PSI 1-4); higher = more stable; sorted into four equal gates, so the index is relative within each strain
# CONDITION_DETAILS: doa10∆

ITEM_SEQUENCE: PFSFSSATSTTEQTKSK [YLR335W/NUP2]
protein stability index: 2.99

ITEM_SEQUENCE: LELLNQLDGFSSDDRVK [RPT5]
protein stability index: 3.07

ITEM_SEQUENCE: SHNVDELLEHIETIGHL [RPN5]
protein stability index: 2.51

ITEM_SEQUENCE: FIYGEDGMDAAHIEKQS [RPO21]
protein stability index: 3.31

ITEM_SEQUENCE: GDTIELAIIGDENPDLL [PRE8]
protein stability index: 3.56

ITEM_SEQUENCE: NALDKLRNNLNSLIEEI [YCG1]
protein stability index: 3.22

ITEM_SEQUENCE: LFPEQQTKEIKTERVED [RPL6B]
protein stability index: 3.55

ITEM_SEQUENCE: QPKPLFSFGKSDAAKEP [YOR098C/NUP1]
protein stability index: 2.52
